The following compounds have recorded pKi on human alpha-FXIIa (Homo sapiens (Human), UniProt P00748).
Sequence (P00748 373-615): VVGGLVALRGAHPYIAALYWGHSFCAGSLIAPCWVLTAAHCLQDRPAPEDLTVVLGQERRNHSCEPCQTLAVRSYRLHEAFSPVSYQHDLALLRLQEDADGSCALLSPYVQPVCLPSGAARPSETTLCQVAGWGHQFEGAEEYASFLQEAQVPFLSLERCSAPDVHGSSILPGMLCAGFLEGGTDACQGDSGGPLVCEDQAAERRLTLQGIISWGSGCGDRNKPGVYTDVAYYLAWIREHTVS
Sequence (P00748 20-372 partner): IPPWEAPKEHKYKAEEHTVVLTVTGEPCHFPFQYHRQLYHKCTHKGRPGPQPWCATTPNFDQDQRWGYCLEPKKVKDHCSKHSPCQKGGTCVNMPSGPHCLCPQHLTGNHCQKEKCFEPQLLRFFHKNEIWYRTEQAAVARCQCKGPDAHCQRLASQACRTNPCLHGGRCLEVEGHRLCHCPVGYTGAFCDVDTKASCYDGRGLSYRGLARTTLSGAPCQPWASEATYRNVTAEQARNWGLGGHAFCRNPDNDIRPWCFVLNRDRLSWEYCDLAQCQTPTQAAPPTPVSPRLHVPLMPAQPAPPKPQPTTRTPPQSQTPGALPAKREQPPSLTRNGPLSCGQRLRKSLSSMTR
The meaning of pKi here: minus log10 of the concentration in molar units.

CC(C)C(=O)N1CCC(CC[C@@H](NS(=O)(=O)Cc2ccccc2)C(=O)N[C@@H](CCC2CCNCC2)C(=O)NCc2ccc(C(=N)N)cc2)CC1: 5.89
N=C(N)c1ccc(CNC(=O)[C@H](CCC2CCNCC2)NC(=O)[C@@H](CCCc2cc[n+]([O-])cc2)NS(=O)(=O)Cc2ccccc2)cc1 [drawing 117]: 6.06
COC(=O)N1CCC(CCC[C@@H](NS(=O)(=O)Cc2ccccc2)C(=O)N[C@@H](CCC2CCNCC2)C(=O)NCc2ccc(C(=N)N)cc2)CC1: 6.40

Param item: N=C(N)c1ccc(CNC(=O)[C@H](CCC2CCNCC2)NC(=O)[C@@H](CCCc2cc[n+]([O-])cc2)NS(=O)(=O)Cc2ccccc2)cc1 [drawing 123] ; param system: human alpha-FXIIa (Homo sapiens (Human), UniProt P00748); output pKi: 6.06

Param item: `COCC(=O)N1CCC(CC[C@@H](NS(=O)(=O)Cc2ccccc2)C(=O)N[C@@H](CCC2CCNCC2)C(=O)NCc2ccc(C(=N)N)cc2)CC1` ; param system: human alpha-FXIIa (Homo sapiens (Human), UniProt P00748); output pKi: 6.17

Param item: `CCCC(=O)N1CCC(CC[C@@H](NS(=O)(=O)Cc2ccccc2)C(=O)N[C@@H](CCC2CCNCC2)C(=O)NCc2ccc(C(=N)N)cc2)CC1` ; param system: human alpha-FXIIa (Homo sapiens (Human), UniProt P00748); output pKi: 6.10

Param item: `CC(=O)N1CCC(CC[C@@H](NS(=O)(=O)Cc2ccccc2)C(=O)N[C@@H](CCC2CCNCC2)C(=O)NCc2ccc(C(=N)N)cc2)CC1` ; param system: human alpha-FXIIa (Homo sapiens (Human), UniProt P00748); output pKi: 6.28

====

Entries annotated with measured Ki
# Target system: human Factor Xa (Homo sapiens (Human))
# Sequence (P00742 235-488): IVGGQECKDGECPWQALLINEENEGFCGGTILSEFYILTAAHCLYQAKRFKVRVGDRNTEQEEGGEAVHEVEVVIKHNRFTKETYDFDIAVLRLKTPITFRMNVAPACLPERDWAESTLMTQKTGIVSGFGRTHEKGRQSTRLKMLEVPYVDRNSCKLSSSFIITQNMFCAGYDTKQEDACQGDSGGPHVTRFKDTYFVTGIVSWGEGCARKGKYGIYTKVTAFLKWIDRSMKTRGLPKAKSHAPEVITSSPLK
# Sequence (P00742 41-179 partner): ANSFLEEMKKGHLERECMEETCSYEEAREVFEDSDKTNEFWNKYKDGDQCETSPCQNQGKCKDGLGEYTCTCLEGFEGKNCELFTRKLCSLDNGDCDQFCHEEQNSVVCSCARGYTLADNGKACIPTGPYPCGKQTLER
API: value field is a number in nM; no unit string.

Past entries and their recorded results:
CCCC(=O)N1CCC(CC[C@@H](NS(=O)(=O)Cc2ccccc2)C(=O)N[C@@H](CCC2CCNCC2)C(=O)NCc2ccc(C(=N)N)cc2)CC1: 2200
N=C(N)c1ccc(CNC(=O)[C@H](CCC2CCNCC2)NC(=O)[C@@H](CCCc2cc[n+]([O-])cc2)NS(=O)(=O)Cc2ccccc2)cc1 [drawing 117]: 400
N=C(N)c1ccc(CNC(=O)[C@H](CCC2CCNCC2)NC(=O)[C@H](NS(=O)(=O)Cc2ccccc2)c2ccccc2)cc1: 1600

Reported Ki ( `CC(=O)N1CCC(CC[C@@H](NS(=O)(=O)Cc2ccccc2)C(=O)N[C@@H](CCC2CCNCC2)C(=O)NCc2ccc(C(=N)N)cc2)CC1` ) = 1900

====

# Target system: human alpha-thrombin (Homo sapiens (Human), UniProt P00734)
Field 'label' (enum: true / false). Set to true when Ki is strictly under 5 µM; else false.

N=C(N)c1ccc(CNC(=O)[C@H](CCC2CCNCC2)NC(=O)[C@@H](CCCc2ccccc2)NS(=O)(=O)Cc2cccc(C(=O)O)c2)cc1: true
N=C(N)c1ccc(CNC(=O)[C@H](CCC2CCNCC2)NC(=O)[C@@H](CCCc2ccccc2)NS(=O)(=O)Cc2ccccc2)cc1: true
CC(=O)N1CCC(CC[C@@H](NS(=O)(=O)Cc2ccccc2)C(=O)N[C@@H](CCC2CCNCC2)C(=O)NCc2ccc(C(=N)N)cc2)CC1: false
N=C(N)c1ccc(CNC(=O)[C@H](CCC2CCNCC2)NC(=O)[C@@H](CCC2CCNCC2)NS(=O)(=O)Cc2ccccc2)cc1: true
CC(C)C(=O)N1CCC(CC[C@@H](NS(=O)(=O)Cc2ccccc2)C(=O)N[C@@H](CCC2CCNCC2)C(=O)NCc2ccc(C(=N)N)cc2)CC1: false

INPUT: Say whether its Ki is strictly beneath 5 µM. Entry: `CNC(=O)N1CCC(CC[C@@H](NS(=O)(=O)Cc2ccccc2)C(=O)N[C@@H](CCC2CCNCC2)C(=O)NCc2ccc(C(=N)N)cc2)CC1`
OUTPUT: true

INPUT: Say whether its Ki is strictly beneath 5 µM. Entry: `CCC(=O)N1CCC(CC[C@@H](NS(=O)(=O)Cc2ccccc2)C(=O)N[C@@H](CCC2CCNCC2)C(=O)NCc2ccc(C(=N)N)cc2)CC1`
OUTPUT: false

INPUT: Say whether its Ki is strictly beneath 5 µM. Entry: `N=C(N)c1ccc(CNC(=O)[C@H](CCC2CCNCC2)NC(=O)[C@H](NS(=O)(=O)Cc2ccccc2)c2ccccc2)cc1`
OUTPUT: true

INPUT: Say whether its Ki is strictly beneath 5 µM. Entry: `N=C(N)c1ccc(CNC(=O)[C@H](CCC2CCNCC2)NC(=O)[C@@H](CCCc2ccncc2)NS(=O)(=O)Cc2ccccc2)cc1`
OUTPUT: true

INPUT: Say whether its Ki is strictly beneath 5 µM. Entry: `COCC(=O)N1CCC(CC[C@@H](NS(=O)(=O)Cc2ccccc2)C(=O)N[C@@H](CCC2CCNCC2)C(=O)NCc2ccc(C(=N)N)cc2)CC1`
OUTPUT: true

INPUT: Say whether its Ki is strictly beneath 5 µM. Entry: `COC(=O)N1CCC(CCC[C@@H](NS(=O)(=O)Cc2ccccc2)C(=O)N[C@@H](CCC2CCNCC2)C(=O)NCc2ccc(C(=N)N)cc2)CC1`
OUTPUT: true
